This collection of values is drawn from the supplement of paper PMC10201428.

B1: library; a variant is named by its letters at N, in order (parent)
chain: ACATTTGTTGATACAACCATAAAATGATAATTACACCCATAAATTGATAATTATCACACCCANNNNNNNNNNNNNNCTCTGATCATAGTCAGACCAACATTGCTACGACCCGTATTCGCACCGACAC

Variants of: B1
Test: relative integration efficiency (T-RL orientation) vs wild-type transposon end (log2 (normalized fold change)); transposon end mutated: right end (5 bp flank + 75 bp right end); higher = more efficient transposition
Details: with VchCAST RNA-guided transposition machinery (E. coli BL21(DE3) host, lacZ target)
Reported relative integration efficiency (log2) is given for each of the following variants.

// solved cases for relative integration efficiency (log2) follow
- TATATTGATATTGC: 0.155
- ATTTAACTATAACG A42C: -1.82
- ATTTAACTATAACG C55G: -1.37
- TAAATTGATATTGC T20G: -1.34
- ATTTAACTATAACG T40G: -2.18
- TAAATTGATATTGC T52G: -0.506

**Q:** Form field: reported relative integration efficiency (log2) of TAAATTGATATTGC G7T
**A:** -2.2

**Q:** Form field: reported relative integration efficiency (log2) of TAACTTGATATTGC
**A:** 0.11

**Q:** Form field: reported relative integration efficiency (log2) of TAAATTGATATTGC T5C
**A:** -0.234
